# measured_on: recombinant human PAI-1 (Homo sapiens, UniProt P05121)
# Sequence (P05121 24-402): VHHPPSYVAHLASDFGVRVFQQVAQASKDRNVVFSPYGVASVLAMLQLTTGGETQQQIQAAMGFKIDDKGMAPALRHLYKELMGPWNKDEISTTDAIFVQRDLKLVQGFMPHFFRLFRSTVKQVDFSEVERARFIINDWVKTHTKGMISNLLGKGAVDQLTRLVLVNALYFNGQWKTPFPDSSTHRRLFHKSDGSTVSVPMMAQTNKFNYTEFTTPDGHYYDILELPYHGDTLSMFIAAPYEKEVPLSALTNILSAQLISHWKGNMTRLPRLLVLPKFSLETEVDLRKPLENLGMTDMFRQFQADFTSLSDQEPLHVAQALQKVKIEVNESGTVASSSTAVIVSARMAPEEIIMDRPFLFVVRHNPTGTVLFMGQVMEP
# assay_comment: Test Example 2: Human PAI-1 Inhibitory Activity (pH 7.4 HEPES buffer, 10 minutes incubation with two-chain tPA)
# Assay type: biochemical
# Design: purchased Molecular Innovations, Inc
# particulars: read-out: Inhibition Rate of PAI-1 Activity (%)
endpoint_label: inhibition at 0.3 µM (%)
Unit % implied. Number only.

Past entries and their recorded results:
INSERT INTO assay_data (molecule, measured_on, endpoint_label, measured_result) VALUES
  ('Cc1ccc(-c2ccc(OCC(=O)O)c(Oc3ccc(C(C)(C)C)cc3)c2)cc1', 'recombinant human PAI-1 (Homo sapiens, UniProt P05121)', 'inhibition at 0.3 µM', 0),
  ('CC(C)(C)c1cccc(Oc2cc(-c3ccc(OC(F)(F)F)cc3)ccc2OCC(=O)O)c1', 'recombinant human PAI-1 (Homo sapiens, UniProt P05121)', 'inhibition at 0.3 µM', 19),
  ('CCCCCCCOc1cc(-c2ccc(OC(F)(F)F)cc2)ccc1N(CCCCc1ccccc1)C(=O)C(=O)O', 'recombinant human PAI-1 (Homo sapiens, UniProt P05121)', 'inhibition at 0.3 µM', 18),
  ('CC(C)(C)[C@H]1CC[C@H](N(C(=O)C(=O)O)c2ccc(-c3ccc(OC(F)(F)F)cc3)cc2)CC1', 'recombinant human PAI-1 (Homo sapiens, UniProt P05121)', 'inhibition at 0.3 µM', 8),
  ('CC(C)(C)c1ccc(Oc2cc(-c3ccc4ccccc4c3)ccc2/C=C/C(=O)O)cc1', 'recombinant human PAI-1 (Homo sapiens, UniProt P05121)', 'inhibition at 0.3 µM', 22),
  ('CC(C)(C)c1ccc(COc2c(CCC(=O)O)cccc2-c2ccc(OC(F)(F)F)cc2)cc1', 'recombinant human PAI-1 (Homo sapiens, UniProt P05121)', 'inhibition at 0.3 µM', 5),
  ('CCCCCCOc1ccc(-c2ccc(OC(F)(F)F)cc2)cc1OC(CCCCCC)C(=O)O (centres unmarked)', 'recombinant human PAI-1 (Homo sapiens, UniProt P05121)', 'inhibition at 0.3 µM', 9);

IN: inhibition at 0.3 µM lookup needed for O=C(O)COc1ccc(-c2ccc(OC(F)(F)F)cc2)cc1OCCCCc1ccccc1 , thanks.
OUT: 8

====

# measured_on: recombinant human PAI-1 (Homo sapiens, UniProt P05121)
# assay_comment: Test Example 2: Human PAI-1 Inhibitory Activity (pH 7.4 HEPES buffer, 10 minutes incubation with two-chain tPA)
# Format: biochemical
# Set-up: purchased Molecular Innovations, Inc
# particulars: read-out: Inhibition Rate of PAI-1 Activity (%)
endpoint_label: inhibition at 0.3 µM (%)
The response must be a number in % with no trailing unit.

INSERT INTO assay_data (molecule, measured_on, measured_result) VALUES
  ('COc1ccc(-c2ccc(OC(F)(F)F)cc2)cc1N(CCCCc1ccccc1)C(=O)C(=O)O', 'recombinant human PAI-1 (Homo sapiens, UniProt P05121)', 0),
  ('CC(C)(C)[C@H]1CC[C@@H](N(C(=O)C(=O)O)c2ccc(-c3ccc(OC(F)(F)F)cc3)cc2)CC1', 'recombinant human PAI-1 (Homo sapiens, UniProt P05121)', 21),
  ('CC(C)c1ccc(Oc2cc(-c3ccc(OC(F)(F)F)cc3)ccc2OCC(=O)O)cc1', 'recombinant human PAI-1 (Homo sapiens, UniProt P05121)', 10);

Here is the next item to consider.
IN: Please look up its inhibition at 0.3 µM: CC(C)(C)c1ccc(C(=O)c2cc(-c3ccc(OC(F)(F)F)cc3)ccc2OCC(=O)O)cc1
OUT: 22

====

The entries below are paired with their reported inhibition at 10 µM.
# measured_on: recombinant human PAI-1 (Homo sapiens)
# assay_comment: Test Example 2: Human PAI-1 Inhibitory Activity (pH 7.4 HEPES buffer, 10 minutes incubation with two-chain tPA)
# Assay type: biochemical
# Set-up: purchased Molecular Innovations, Inc
# particulars: read-out: Inhibition Rate of PAI-1 Activity (%)
Answer with a number only, understood to be in %.

INSERT INTO measurements (compound, measured_on, endpoint_label, u, measured_result) VALUES
  ('O=C(O)CC(=O)N(Cc1ccccc1)c1ccc(-c2ccc(OC(F)(F)F)cc2)cc1F [Compound 602]', 'recombinant human PAI-1 (Homo sapiens)', 'inhibition at 10 µM', '%', 78),
  ('CC(C)(C)c1ccc(COc2ccc(N3CCN(c4ccc(OC(F)(F)F)cc4)CC3)cc2/C=C/C(=O)O)cc1 [Compound 418]', 'recombinant human PAI-1 (Homo sapiens)', 'inhibition at 10 µM', '%', 94),
  ('CC(C)(C)c1ccc(CN(C(=O)C(=O)O)c2ccc(N3CCN(c4ccccc4)CC3)cc2)cc1 [Compound 627]', 'recombinant human PAI-1 (Homo sapiens)', 'inhibition at 10 µM', '%', 57),
  ('CN(C(=O)c1ccc(N(Cc2ccc(C(C)(C)C)cc2)C(=O)C(=O)O)cc1)c1ccc(OC(F)(F)F)cc1 [Compound 618]', 'recombinant human PAI-1 (Homo sapiens)', 'inhibition at 10 µM', '%', 78);

IN: So what's the measured inhibition at 10 µM for this one? CC(C)(C)c1ccc(COc2ccc(N3CCN(c4ccc(OC(F)(F)F)cc4)CC3)cc2CCC(=O)O)cc1 [Compound 419]
OUT: 98

IN: For the compound shown here, CC(C)(C)c1ccc(N(Cc2ccc(-c3ccccc3)cc2)C(=O)C(=O)O)cc1 [Compound 612] , give the reported inhibition at 10 µM.
OUT: 84

IN: Given the entry CC(C)(C)c1ccc(CN(C(=O)CC(=O)O)c2ccc(-c3ccc(OC(F)(F)F)cc3)cc2)cc1 [Compound 608] , report its measured inhibition at 10 µM.
OUT: 95

====

# measured_on: recombinant human PAI-1 (Homo sapiens, UniProt P05121)
# assay_comment: Test Example 2: Human PAI-1 Inhibitory Activity (pH 7.4 HEPES buffer, 10 minutes incubation with two-chain tPA)
# Format: biochemical
# Parameters: purchased Molecular Innovations, Inc
# particulars: read-out: Inhibition Rate of PAI-1 Activity (%)
# binning rule on inhibition at 1 µM: bin 0: < 50%; bin 1: ≥ 50% and < 80%; bin 2: ≥ 80%

Use the examples below as a reference point.
INSERT INTO measurements (compound, class_name) VALUES
  ('CCCCCOc1ccc(-c2ccc(OCC(=O)O)c(Oc3ccc(C(C)(C)C)cc3)c2)cc1 [Compound 440]', 'bin 2'),
  ('CCCCCCCCCOc1cc(N(Cc2ccc(C(C)(C)C)cc2)C(=O)C(=O)O)ccc1-c1ccc(OC(F)(F)F)cc1 [Compound 388]', 'bin 2'),
  ('CC(C)(C)c1ccc(CN(C(=O)C(=O)O)c2ccc(N3CCN(c4ccccc4)CC3)cc2)cc1 [Compound 627]', 'bin 0'),
  ('CCCCCOc1ccc(-c2ccc(OC(F)(F)F)cc2)cc1N(CCCOc1ccccc1)C(=O)C(=O)O [Compound 356]', 'bin 1'),
  ('CCCCN(CC(=O)O)c1cc(-c2ccc(OC(F)(F)F)cc2)ccc1OCCCCc1ccccc1 [Compound 433]', 'bin 0'),
  ('CCCCOc1ccc(Oc2cc(-c3ccc(OC(F)(F)F)cc3)ccc2CCC(=O)O)cc1 [Compound 461]', 'bin 2'),
  ('CC(C)(C)c1ccc(CN(C(=O)C(=O)O)c2cccc(-c3ccc(OC(F)(F)F)cc3)c2)cc1 [Compound 130]', 'bin 0'),
  ('O=C(O)C(=O)N(CCCCc1ccccc1)c1ccc(N2CCCC2)c(-c2ccc(OC(F)(F)F)cc2)c1 [Compound 673]', 'bin 2');

IN: Band assignment needed for CN(CC(=O)O)c1ccc(-c2ccc(OC(F)(F)F)cc2)cc1Oc1ccc(C(C)(C)C)cc1 [Compound 534] please.
OUT: bin 2

IN: # classify by inhibition at 1 µM band: CN(C(=O)c1ccc(N(Cc2ccc(C(C)(C)C)cc2)C(=O)C(=O)O)cc1)c1ccc(OC(F)(F)F)cc1 [Compound 618]
OUT: bin 0

IN: Determine which band this compound sits in: CCCCC(Oc1cc(Oc2ccc(C(C)(C)C)cc2)cc(-c2ccc(OC(F)(F)F)cc2)c1)C(=O)O (stereo not drawn) [Compound 426]
OUT: bin 2

IN: Any idea which band CCCCCOc1ccc(-c2ccc(OC(F)(F)F)cc2)cc1N(CCCCc1ccccc1)CC(=O)O [Compound 640] is in?
OUT: bin 2

IN: GET /class?item= O=C(O)/C=C/c1ccc(-c2ccc(OC(F)(F)F)cc2)cc1OCCCSc1ccccc1 [Compound 489]
OUT: bin 1

IN: Would you mind sorting CCCCCOc1cc(-c2cccc(C)c2)ccc1N(CCCCc1ccccc1)C(=O)C(=O)O [Compound 376] into the appropriate category?
OUT: bin 1

====

# measured_on: recombinant human PAI-1 (Homo sapiens)
# assay_comment: biochemical
# particulars: read-out: Inhibition Rate of PAI-1 Activity (%)
endpoint_label: inhibition at 25 µM (%)
All answers are understood in %, so give the number only.

Worked cases, answers included:
INSERT INTO measurements (compound, u, measured_result) VALUES
  ('CC(C)(C)c1ccc(COc2c(Cl)cc(-c3ccc(OC(F)(F)F)cc3)cc2/C=C/C(=O)O)cc1', '%', 96),
  ('CSc1ccc(CN(C(=O)C(=O)O)c2ccc(-c3ccc(OC(F)(F)F)cc3)cc2)cc1', '%', 68);

IN: // inhibition at 25 µM lookup, key: Cc1cc(-c2ccc(OC(F)(F)F)cc2)cc(/C=C/C(=O)O)c1OCc1ccc(C(C)(C)C)cc1
OUT: 56

IN: Given the entry O=C(O)C(=O)N(Cc1ccccc1)c1ccc(Oc2ccc(OC(F)(F)F)cc2)cc1 , report its measured inhibition at 25 µM.
OUT: 20

IN: Request the reported inhibition at 25 µM associated with CC(C)(C)c1ccc(CN(C(=O)C(=O)O)c2ccc(-c3cccc([N+](=O)[O-])c3)cc2)cc1
OUT: 33

IN: GET /values?readout=inhibition at 25 µM&item= CC(C)Oc1ccc(N(CCCc2ccccc2)C(=O)C(=O)O)c(-c2ccc(OC(F)(F)F)cc2)c1
OUT: 98

IN: # inhibition at 25 µM lookup, item O=C(O)CCc1cc(-c2ccc(OC(F)(F)F)cc2)ccc1OCCCOc1ccccc1
OUT: 89
